# Assay explanation: The drug is tested on Bacteroides fragilis strain: HMW610 for biotransformation. The drug concentrations were measured before and after a 12-h incubation by liquid-chromatography-coupled mass spectrometry (LC–MS)
# Condition: 2 µM
Endpoint: Bacterial Biotransformation

{"columns": ["Compound", "Endpoint", "Result"],
 "data": [
  ["CN1C(=O)CCS(=O)(=O)C1c1ccc(Cl)cc1 (stereo not drawn)", "Bacterial Biotransformation", "Compound NOT metabolized"],
  ["CCCN(CCC)CCc1cccc2c1CC(=O)N2", "Bacterial Biotransformation", "Compound NOT metabolized"],
  ["N=C(N)NC(=O)Cc1c(Cl)cccc1Cl", "Bacterial Biotransformation", "Compound NOT metabolized"],
  ["CCN(CC)C(C)CN1c2ccccc2Sc2ccccc21 (stereo not drawn)", "Bacterial Biotransformation", "Compound NOT metabolized"],
  ["CC[C@@H](CO)NC(=O)[C@@H]1C=C2c3cccc4c3c(cn4C)C[C@H]2N(C)C1.O=C(O)/C=C\\C(=O)O [METHYSERGIDE MALEATE]", "Bacterial Biotransformation", "Compound NOT metabolized"],
  ["CN1CCC[C@@H]1CCO[C@](C)(c1ccccc1)c1ccc(Cl)cc1.O=C(O)/C=C/C(=O)O [CLEMASTINE FUMARATE]", "Bacterial Biotransformation", "Compound metabolized"],
  ["O=c1n(CCCN2CCN(c3cccc(Cl)c3)CC2)nc2ccccn12", "Bacterial Biotransformation", "Compound NOT metabolized"],
  ["C[C@]12C=CC(=O)C=C1CC[C@@H]1[C@@H]2C(=O)C[C@@]2(C)[C@H]1CC[C@]2(O)C(=O)CO", "Bacterial Biotransformation", "Compound NOT metabolized"],
  ["CN1[C@@H]2CC[C@H]1C[C@@H](OC(=O)c1c[nH]c3ccccc13)C2", "Bacterial Biotransformation", "Compound NOT metabolized"],
  ["O=C1[C@H](CC[C@H](O)c2ccc(F)cc2)[C@@H](c2ccc(O)cc2)N1c1ccc(F)cc1", "Bacterial Biotransformation", "Compound NOT metabolized"],
  ["C#C[C@]1(OC(C)=O)CC[C@H]2[C@@H]3CCC4=CC(=O)CC[C@@H]4[C@H]3CC[C@@]21C [NORETHINDRONE ACETATE]", "Bacterial Biotransformation", "Compound metabolized"],
  ["Cc1ccc(/C(=C\\CN2CCCC2)c2ccccn2)cc1", "Bacterial Biotransformation", "Compound NOT metabolized"],
  ["COc1ccc2cc([C@H](C)C(=O)O)ccc2c1", "Bacterial Biotransformation", "Compound metabolized"],
  ["N[C@@H](Cc1ccc(N(CCCl)CCCl)cc1)C(=O)O", "Bacterial Biotransformation", "Compound metabolized"],
  ["CC1OC(OC2C(O)CC(OC3C(O)CC(OC4CCC5(C)C(CCC6C5CCC5(C)C(C7=CC(=O)OC7)CCC65O)C4)OC3C)OC2C)CC(O)C1O (stereo not drawn)", "Bacterial Biotransformation", "Compound metabolized"],
  ["Cc1ccnc2c1NC(=O)c1cccnc1N2C1CC1", "Bacterial Biotransformation", "Compound NOT metabolized"],
  ["COc1cc2nc(N3CCN(C(=O)c4ccco4)CC3)nc(N)c2cc1OC", "Bacterial Biotransformation", "Compound NOT metabolized"],
  ["CC(=O)OCC(=O)NCCCOc1cccc(CN2CCCCC2)c1 [ROXATIDINE ACETATE]", "Bacterial Biotransformation", "Compound metabolized"]
]}

Numbers sourced from ChEMBL document CHEMBL5303573.
